- target: Prostaglandin G/H synthase 1 (Oryctolagus cuniculus)
- assay.notes: Inhibitory activity against Prostaglandin G/H synthase 1 from rabbit renal microsomes
Give measured pIC50 for each item. Keep answers brief.
The scale used: pIC50 is minus the common logarithm of the concentration in molar units.

Exam item: Form field: reported pIC50 of CC[C@@]1(C)CC=C2C(CCC3[C@](C)(C(=O)O)CCC[C@@]23C)C1 (some centres not stated)
Marked response: 3.64

Exam item: Form field: reported pIC50 of C[C@]1(CCF)CC=C2C(CCC3[C@](C)(C(=O)F)CCC[C@@]23C)C1 (some centres not stated)
Marked response: 4.74

Exam item: Form field: reported pIC50 of C=C[C@@]1(C)CC=C2C(CCC3[C@](C)(C(=O)NO)CCC[C@@]23C)C1 (some centres not stated)
Marked response: 4.34

Exam item: Form field: reported pIC50 of C=C[C@@]1(C)CC=C2C(CCC3[C@](C)(CO)CCC[C@@]23C)C1 (some centres not stated)
Marked response: 3.10

Exam item: Form field: reported pIC50 of C=C[C@@]1(C)CC=C2C(CCC3[C@](C)(CC(=O)O)CCC[C@@]23C)C1 (some centres not stated)
Marked response: 4.55

Exam item: Form field: reported pIC50 of C=C[C@@]1(C)CC=C2C(CCC3[C@](C)(CCC/C=C/C(=O)O)CCC[C@@]23C)C1 (some centres not stated)
Marked response: 4.49
